system: biotinyl-Leu-oxazolone; assay: self-aminoacylation, catalytic enhancement (BLO) (fold over background); higher = more active; k-Seq, kA / k0A0; sequences stand for … in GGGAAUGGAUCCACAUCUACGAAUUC…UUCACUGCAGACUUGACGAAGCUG
Variants at the floor of the assay were thinned out.
Some sequences, each annotated with its measured self-aminoacylation.

SEQ TEXT	MEASUREMENT TARGET	self-aminoacylation
AUUAACCUAGGUCAUCCGGUG [Fam2.2 aminoacylation ribozyme variant]	biotinyl-Leu-oxazolone	4.91
CUACUUUACACAAUCGGUCUG [Fam1A.1 aminoacylation ribozyme variant]	biotinyl-Leu-oxazolone	0.742
AUUACCCUGGUGAACGAGUGA [Fam2.1 aminoacylation ribozyme variant]	biotinyl-Leu-oxazolone	2.25
AUUACUCUGGUCUUCGAGUGA [Fam2.1 aminoacylation ribozyme variant]	biotinyl-Leu-oxazolone	5.04
AAUUUUUCUAAUAGUCGCAAG [Fam3.1 aminoacylation ribozyme variant]	biotinyl-Leu-oxazolone	1.75

====

Here the recorded self-aminoacylation is given for each entry.
system: biotinyl-Val-oxazolone; assay: self-aminoacylation, catalytic enhancement (BVO) (fold over background); higher = more active; k-Seq, kA / k0A0; sequences stand for … in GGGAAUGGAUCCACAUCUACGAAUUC…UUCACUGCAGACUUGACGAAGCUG
Variants at the floor of the assay were thinned out.
READOUT KIND: self-aminoacylation

SEQ TEXT	RECORDED VALUE
AAGCUCGCUAAUAGUCGCAAG [Fam3.1 aminoacylation ribozyme variant]	1.95
CUAAUUCAAACAAUCGGUCUA [Fam1A.1 aminoacylation ribozyme variant]	0.593
AGUAACCUGGUCAUCGAGUGA [Fam2.1 aminoacylation ribozyme variant]	3.25
GUACUUCAAACAAGCGGUCUG [Fam1A.1 aminoacylation ribozyme variant]	1.49
AUAACUCUGGUCAUCGAGUGA [Fam2.1 aminoacylation ribozyme variant]	3.04
UUUACCCUGGUCAUCGAGUUA [Fam2.1 aminoacylation ribozyme variant]	3.5
AUCACCCUGGUCACCGAGUGA [Fam2.1 aminoacylation ribozyme variant]	5.92
CUACGUCAAACAAUCGUUCUG [Fam1A.1 aminoacylation ribozyme variant]	0.813
CUCCUGCAAACAAUCGGUCUG [Fam1A.1 aminoacylation ribozyme variant]	1.06
AAGUUUGCUAAUAAACGCAAG [Fam3.1 aminoacylation ribozyme variant]	0.667
CCACAAGUCAAGCAAUCGGUC [Fam1B.1 aminoacylation ribozyme variant]	1.54
AUUACCCUGGUCAUCGGGAGA [Fam2.1 aminoacylation ribozyme variant]	2.41
CCACACUCCAAGGAAUCGGUC [Fam1B.1 aminoacylation ribozyme variant]	1.31
AUUCACCUAGGACAUAGGGUG [Fam2.2 aminoacylation ribozyme variant]	2.01
AUUACCCUGGUUAUCGAGUUA [Fam2.1 aminoacylation ribozyme variant]	0.885
AUUCACUUAUGUCAUCGGGUG [Fam2.2 aminoacylation ribozyme variant]	3.08
AAGUUUGCUACUAGUCGUAAG [Fam3.1 aminoacylation ribozyme variant]	0.783
AAGUUUGCUAAUAGUCGCAAC [Fam3.1 aminoacylation ribozyme variant]	0.935
AUUCGCCUAGGGCAUCGGGUG [Fam2.2 aminoacylation ribozyme variant]	3.45
CUACUUCAGUCAAUCGGUCUG [Fam1A.1 aminoacylation ribozyme variant]	0.807
AUUACCCAGGUCAUCGAGUUA [Fam2.1 aminoacylation ribozyme variant]	1
AUUACCCUGGUCAUAGACUGA [Fam2.1 aminoacylation ribozyme variant]	0.991
AUUACCCUGGCCACCGAGUGA [Fam2.1 aminoacylation ribozyme variant]	3.34
AAGUUUGCUGAUAGUCGUAAG [Fam3.1 aminoacylation ribozyme variant]	0.93
AUUAGGCUGGUCAUCGAGUGA [Fam2.1 aminoacylation ribozyme variant]	2.48
CCAUACUGCAAGCAAUCGGUC [Fam1B.1 aminoacylation ribozyme variant]	1.14
AGUACCCUGCUCAUCGAGUGA [Fam2.1 aminoacylation ribozyme variant]	1.28
CCGCACUUCAAGCAAUGGGUC [Fam1B.1 aminoacylation ribozyme variant]	1.21
AAAUUUGCUACUAGUCGCAAG [Fam3.1 aminoacylation ribozyme variant]	1.63
AUCCACCUAGGUCUUCGGGUG [Fam2.2 aminoacylation ribozyme variant]	6.01
AUUACCCUGGUCAUCGAAUGA [Fam2.1 aminoacylation ribozyme variant]	1.06
AUUCACCUGGGUCAUCGGGGG [Fam2.2 aminoacylation ribozyme variant]	4.1
AUUCCCCGGGUCAUCGAGUGA [Fam2.1 aminoacylation ribozyme variant]	2.92
AAGUUUGCUAAUAGUCGUAAU [Fam3.1 aminoacylation ribozyme variant]	1.23
AUUACCCAGGUCAUCGACUGA [Fam2.1 aminoacylation ribozyme variant]	1.03
